- System: T47D
- Method: Growth inhibition of human T47D cells after 48 hrs
- Type: functional
Quantity measured: GI50 (nM)

// below: answered compounds
Compound	GI50 (nM)
COc1cc(C2C(C#N)=C(N)Oc3c2ccc2c3ccn2C)cc(Br)c1OC (configuration not stated)	0.3
COc1cc(C2C(C#N)=C(N)Oc3c2ccc2[nH]ccc32)cc(Br)c1OC (configuration not stated)	8
COc1cc2c(c(OC)c1OC)-c1ccc(OC)c(=O)cc1[C@@H](NC(C)=O)CC2	7
CC[C@]1(O)C[C@@H]2CN(CCc3c([nH]c4ccccc34)[C@@](C(=O)OC)(c3cc4c(cc3OC)N(C)[C@H]3[C@@](O)(C(=O)OC)[C@H](OC(C)=O)[C@]5(CC)C=CCN6CC[C@]43[C@@H]65)C2)C1	7
Cc1cncc(C2C(C#N)=C(N)Oc3c2ccc2c3ccn2C)c1 (configuration not stated)	8

1. COc1cc(C2C(C#N)=C(N)Oc3c2ccc2c3CCN2C)cc(Br)c1OC (configuration not stated)
2. COc1cc(C2C(C#N)=C(N)Oc3c2ccc2c3ccn2CO)cc(Br)c1OC (configuration not stated)
[ask] Which of the two items, 1 and 2 , has the greater recorded GI50? // return label of chosen record
[reply] 1
(1: 7 nM, 2: 2 nM)
